Overview of reported EC50 across a group of molecules:
- Test system: KMS11 (human myeloma cell line)
- Assay Overview: Cell proliferation assay (CellTiter-Glo), KMS11
- Format: cell-based
- Experimental Parameters: Homo sapiens, KMS-11; KMS11 cells, cell proliferation; read-out: KMS11-Luc EC50

// worked examples, EC50 included
{"columns": ["Molecule", "EC50"],
 "data": [
  ["C[C@H]1O[C@@H](c2ccncc2NC(=O)c2ccc(F)c(N3CCS(=O)(=O)CC3)n2)C[C@@H](N)[C@]1(C)O [Example 335]", "> 10 µM"],
  ["O=C(Nc1cc(=O)[nH]cc1[C@H]1C[C@@H](O)[C@H](O)[C@@H](CO)O1)c1ccc(F)c(-c2c(F)cccc2F)n1 [Example 226]", "> 10 µM"]
]}

We now examine a further molecule.
Input line: # query: EC50 of entry CS(=O)(=O)c1cc(F)c(-c2nc(C(=O)Nc3cnccc3[C@@H]3C[C@H](N)[C@@H](O)[C@H](C4CC4)O3)ccc2F)c(F)c1 [Example 326]
Output line: > 10 µM
